src = patent US6900193B1

Target: glucocorticoid receptor (estrogen-primed rabbit thymus) (Oryctolagus cuniculus, UniProt P59667)
Construct: preparation of cytosols for the progesterone and glucocorticoid receptor assays; from tissue; host or cells: thymus of estradiol-primed immature female New Zealand White rabbits (cytosol)
Sequence (P59667 whole entry): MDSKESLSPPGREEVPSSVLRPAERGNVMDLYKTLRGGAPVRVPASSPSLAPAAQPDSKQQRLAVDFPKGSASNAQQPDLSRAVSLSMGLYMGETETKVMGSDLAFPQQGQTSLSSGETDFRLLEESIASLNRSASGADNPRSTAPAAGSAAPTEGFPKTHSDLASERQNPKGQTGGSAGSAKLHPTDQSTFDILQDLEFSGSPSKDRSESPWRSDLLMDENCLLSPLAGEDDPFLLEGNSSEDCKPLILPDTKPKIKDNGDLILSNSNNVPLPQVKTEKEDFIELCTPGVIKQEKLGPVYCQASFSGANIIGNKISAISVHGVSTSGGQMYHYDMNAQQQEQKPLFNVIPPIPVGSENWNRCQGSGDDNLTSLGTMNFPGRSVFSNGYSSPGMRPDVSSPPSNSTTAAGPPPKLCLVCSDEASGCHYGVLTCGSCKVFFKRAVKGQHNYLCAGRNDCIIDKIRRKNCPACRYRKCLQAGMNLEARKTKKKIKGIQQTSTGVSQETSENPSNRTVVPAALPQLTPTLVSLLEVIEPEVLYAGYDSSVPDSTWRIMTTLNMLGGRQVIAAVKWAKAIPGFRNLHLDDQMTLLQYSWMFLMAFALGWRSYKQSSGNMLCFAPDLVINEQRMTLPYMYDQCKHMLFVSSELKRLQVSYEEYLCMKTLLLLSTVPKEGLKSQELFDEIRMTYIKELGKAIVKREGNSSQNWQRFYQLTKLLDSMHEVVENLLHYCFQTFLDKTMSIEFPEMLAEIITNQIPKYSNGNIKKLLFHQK
Assay: Relative binding affinity, glucocorticoid receptor
Details: estrogen-primed rabbit thymus; dexamethasone = 100%
Experimental: Relative Binding Affinities for the Progesterone and Glucocorticoid Receptors […] All binding assays were carried out at 2-6° C. for 16-18 hours. […] Total binding was measured at radioligand concentrations of 3.5 nM and nonspecific binding was measured in the presence of a 200-fold excess of unlabeled progesterone (PR), dexamethasone (GR) or diethylstilbestrol (ER), respectively. […]
property_measured: RELATIVE BINDING AFFINITY Glucocorticoid
Numeric answer plus unit only.

Entry under review: CC(=O)O[C@]1(C(=O)COC(=O)CCC2CCCC2)CC[C@H]2[C@@H]3CCC4=CC(=O)CCC4=C3[C@@H](c3ccc(N(C)C)cc3)C[C@@]21C [Compound 40] . Reported RELATIVE BINDING AFFINITY Glucocorticoid?
37%

Entry under review: CC(=O)O[C@]1(C(=O)CF)CCC2C3CCC4=CC(=O)CCC4=C3C(c3ccc(N(C)C)cc3)C[C@@]21C (stereo partly shown) [Compound 13] . Reported RELATIVE BINDING AFFINITY Glucocorticoid?
109%

Entry under review: CCC(=O)[C@@]1(OC(C)=O)CCC2C3CCC4=CC(=O)CCC4=C3C(c3ccc(N(C)C)cc3)C[C@@]21C (stereo partly shown) [Compound 28] . Reported RELATIVE BINDING AFFINITY Glucocorticoid?
126%

Entry under review: CC(=O)O[C@]1(C(=O)CBr)CCC2C3CCC4=CC(=O)CCC4=C3C(c3ccc(N(C)C)cc3)C[C@@]21C (stereo partly shown) [Compound 14B] . Reported RELATIVE BINDING AFFINITY Glucocorticoid?
175%

Entry under review: COCC(=O)[C@@]1(OC(C)=O)CC[C@H]2[C@@H]3CCC4=CC(=O)CCC4=C3[C@@H](c3ccc(N(C)C)cc3)C[C@@]21C [Compound 38] . Reported RELATIVE BINDING AFFINITY Glucocorticoid?
52%

Entry under review: CN(C)c1ccc(C2CC3(C)C(CCC34OCC4=O)C3CCC4=CC(=O)CCC4=C23)cc1 (stereo not shown) [Compound 12] . Reported RELATIVE BINDING AFFINITY Glucocorticoid?
32%

Entry under review: CC(=O)SCC(=O)C1(O)CCC2C3CCC4=CC(=O)CCC4=C3C(c3ccc(N(C)C)cc3)CC21C (stereo not shown) [Compound 16] . Reported RELATIVE BINDING AFFINITY Glucocorticoid?
77%

----------
For each entry below, report its BINDING AFFINITY Glucocortic value.
target: glucocorticoid receptor (estrogen-primed rabbit thymus) (Oryctolagus cuniculus, UniProt P59667); construct: preparation of cytosols for the progesterone and glucocorticoid receptor assays; from tissue; host or cells: thymus of estradiol-primed immature female New Zealand White rabbits (cytosol); assay: Relative binding affinity, glucocorticoid receptor; details: Table 2; estrogen-primed rabbit thymus; dexamethasone = 100%
The answer is to be given in %; state only the numeric part.

Entry under review: COC(=O)OCC(=O)C1(OC(C)=O)CCC2C3CCC4=CC(=O)CCC4=C3C(c3ccc(N(C)C)cc3)CC21C (stereo not drawn) [Compound 126c] . Reported BINDING AFFINITY Glucocortic?
67

Entry under review: COCC(=O)C1(OC(C)=O)CCC2C3CCC4=CC(=O)CCC4=C3C(c3ccc(N4CCCCC4)cc3)CC21C (stereo not drawn) [Compound 123a] . Reported BINDING AFFINITY Glucocortic?
11

Entry under review: C=COCC(=O)[C@@]1(OC(C)=O)CCC2C3CCC4=CC(=O)CCC4=C3C(c3ccc(N(C)C)cc3)C[C@@]21C (stereo partly drawn) [Compound 129] . Reported BINDING AFFINITY Glucocortic?
20

Entry under review: COCC(=O)[C@@]1(OC)CC[C@H]2[C@@H]3CCC4=CC(=O)CCC4=C3[C@@H](c3ccc(N(C)C)cc3)C[C@@]21C [Compound 113a] . Reported BINDING AFFINITY Glucocortic?
62

Entry under review: COCC(=O)C1(OC)CCC2C3CCC4=CC(=O)CCC4=C3C(c3ccc(N4CCCCC4)cc3)CC21C (stereo not drawn) [Compound 113c] . Reported BINDING AFFINITY Glucocortic?
45

Entry under review: CC(=O)C1(OC=O)CCC2C3CCC4=CC(=O)CCC4=C3C(c3ccc(N(C)C)cc3)CC21C (stereo not drawn) [Compound 69A] . Reported BINDING AFFINITY Glucocortic?
30

Entry under review: CC(=O)OCC(=O)[C@@]1(OC(C)=O)CC[C@H]2[C@@H]3CCC4=CC(=O)CCC4=C3[C@@H](c3ccc(C(C)=O)cc3)C[C@@]21C [Compound 106b] . Reported BINDING AFFINITY Glucocortic?
14

Entry under review: COCC(=O)C1(OC(C)=O)CCC2C3CCC4=CC(=O)CCC4=C3C(c3ccc(C(C)=O)cc3)CC21C (stereo not drawn) [Compound 123b] . Reported BINDING AFFINITY Glucocortic?
45

Entry under review: COC1(C(C)=O)CCC2C3CCC4=CC(=O)CCC4=C3C(c3ccc(N4CCCCC4)cc3)CC21C (stereo not drawn) [Compound 97b] . Reported BINDING AFFINITY Glucocortic?
38
